Biological target: UniProtKB P02550
Sequence (P02550 whole entry, looked up): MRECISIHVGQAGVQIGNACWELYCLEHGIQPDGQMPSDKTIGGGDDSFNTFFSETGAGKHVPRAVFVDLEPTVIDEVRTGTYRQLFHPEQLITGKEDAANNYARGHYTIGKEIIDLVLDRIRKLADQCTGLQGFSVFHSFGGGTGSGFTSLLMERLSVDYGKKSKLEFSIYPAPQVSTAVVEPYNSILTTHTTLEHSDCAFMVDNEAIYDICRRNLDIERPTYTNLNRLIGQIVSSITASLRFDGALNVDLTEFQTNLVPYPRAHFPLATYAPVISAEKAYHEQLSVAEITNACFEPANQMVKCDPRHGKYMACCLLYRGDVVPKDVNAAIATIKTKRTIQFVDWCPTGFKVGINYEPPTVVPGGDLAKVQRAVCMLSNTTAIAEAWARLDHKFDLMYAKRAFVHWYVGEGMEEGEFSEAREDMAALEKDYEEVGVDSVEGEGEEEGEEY
Assay: Concentration which causes polymerization of 50% of the tubulin present in 15 min at 37 degree Celsius (stimulation of microtubule assembly) expressed as ED50 ratio relative to taxol
Format: functional
Listing of recorded ED50 ratio by entry.
Enter a number only.

| Compound Structure String | ED50 ratio |
| --- | --- |
| CC(=O)O[C@H]1C(=O)[C@]2(C)[C@@H](OC(=O)c3ccc(N=[N+]=[N-])cc3)C[C@H]3OC[C@@]3(OC(C)=O)[C@H]2[C@H](OC(=O)c2ccccc2)[C@]2(O)C[C@H](OC(=O)[C@H](O)[C@@H](NC(=O)c3ccccc3)c3ccccc3)C(C)=C1C2(C)C | 21.4 |
| CC(=O)O[C@H]1C(=O)[C@@]2(C)[C@H]([C@H](OC(=O)c3ccccc3)[C@]3(O)C[C@H](OC(=O)[C@H](O)[C@@H](NC(=O)c4c(F)c(F)c(N=[N+]=[N-])c(F)c4F)c4ccccc4)C(C)=C1C3(C)C)[C@]1(OC(C)=O)CO[C@@H]1C[C@@H]2O | 4.6 |

Then this molecule:
The reported ED50 ratio value, UniProtKB P02550, for `CC(=O)O[C@H]1C(=O)[C@@]2(C)[C@H]([C@H](OC(=O)c3ccccc3)[C@]3(O)C[C@H](OC(=O)[C@H](O)[C@@H](NC(=O)c4ccc(N=[N+]=[N-])cc4)c4ccccc4)C(C)=C1C3(C)C)[C@]1(OC(C)=O)CO[C@@H]1C[C@@H]2O` reads 2

Data provenance: ChEMBL document CHEMBL1127241
